Entries annotated with measured relative viability
# System: SK-MES-1
# Protocol Text: relative viability (nuclei count vs DMSO), 5 days (fraction); higher = more cells survive
# Particulars: first compound 4 µM
# print the numeric value only

| Compound | relative viability |
| --- | --- |
| Cc1sc2c(c1C)C(c1ccc(Cl)cc1)=N[C@@H](CC(=O)OC(C)(C)C)c1nnc(C)n1-2 [JQ1] + C[C@@H](Oc1cc(-c2cnn(C3CCNCC3)c2)cnc1N)c1c(Cl)ccc(F)c1Cl [Crizotinib] (partner 1 µM) | 0.295 |
| Cc1sc2c(c1C)C(c1ccc(Cl)cc1)=N[C@@H](CC(=O)OC(C)(C)C)c1nnc(C)n1-2 [JQ1] + CS(=O)(=O)CCNCc1ccc(-c2ccc3ncnc(Nc4ccc(OCc5cccc(F)c5)c(Cl)c4)c3c2)o1 [Lapatinib] (partner 2 µM) | 0.274 |

For the compound Cc1sc2c(c1C)C(c1ccc(Cl)cc1)=N[C@@H](CC(=O)OC(C)(C)C)c1nnc(C)n1-2 [JQ1] + O=C(CCCCCCC(=O)Nc1ccccc1)NO [Vorinostat] (partner 1 µM) , give its reported relative viability.
0.273

For the compound Cc1sc2c(c1C)C(c1ccc(Cl)cc1)=N[C@@H](CC(=O)OC(C)(C)C)c1nnc(C)n1-2 [JQ1] + CCNC(=O)c1noc(-c2cc(C(C)C)c(O)cc2O)c1-c1ccc(CN2CCOCC2)cc1 [Luminespib] (partner 0.01 µM) , give its reported relative viability.
0.173

For the compound Cc1sc2c(c1C)C(c1ccc(Cl)cc1)=N[C@@H](CC(=O)OC(C)(C)C)c1nnc(C)n1-2 [JQ1] + Nc1ncn([C@H]2C[C@H](O)[C@@H](CO)O2)c(=O)n1 [Decitabine] (partner 2 µM) , give its reported relative viability.
0.216

###

Entries annotated with measured relative viability
# Test system: 201T
# Protocol Text: relative viability (nuclei count vs DMSO), 5 days (fraction); higher = more cells survive
# Particulars: first compound 5 µM
# print the numeric value only

| Compound | relative viability |
| --- | --- |
| O=C(O)CCCCC(CCSCc1ccccc1)SCc1ccccc1 (stereo not drawn) [CPI-613] + Nc1nc2[nH]cc(CCc3ccc(C(=O)N[C@@H](CCC(=O)O)C(=O)O)cc3)c2c(=O)[nH]1 [Pemetrexed] (partner 0.2 µM) | 0.268 |
| O=C(O)CCCCC(CCSCc1ccccc1)SCc1ccccc1 (stereo not drawn) [CPI-613] + O=C(c1cc(Cc2n[nH]c(=O)c3ccccc23)ccc1F)N1CCN(C(=O)C2CC2)CC1 [Olaparib] (partner 8 µM) | 0.849 |

Let us examine a further case.
For the compound O=C(O)CCCCC(CCSCc1ccccc1)SCc1ccccc1 (stereo not drawn) [CPI-613] + NC(=O)Nc1cc(-c2cccc(F)c2)sc1C(=O)N[C@H]1CCCNC1 [AZD7762] (partner 0.2 µM) , give its reported relative viability.
0.581

###

# Tested on: NCI-H1395
# Protocol Text: relative viability (nuclei count vs DMSO), 5 days (fraction); higher = more cells survive
# Particulars: first compound 0.05 µM
Result Type: relative viability

| Molecule | relative viability |
| --- | --- |
| Nc1ccn([C@@H]2O[C@H](CO)[C@@H](O)[C@@H]2O)c(=O)n1 [Cytarabine] + COc1cc2c(Oc3ccc(NC(=O)C4(C(=O)Nc5ccc(F)cc5)CC4)cc3F)ccnc2cc1OCCCN1CCOCC1 [Foretinib] (partner 0.25 µM) | 0.548 |

For the molecule COc1cc2nccc(Oc3ccc(NC(=O)Nc4cc(C)on4)c(Cl)c3)c2cc1OC [Tivozanib] + Nc1ncn([C@H]2C[C@H](O)[C@@H](CO)O2)c(=O)n1 [Decitabine] (partner 2 µM) , give its reported relative viability.
0.732

For the molecule COc1cc2nccc(Oc3ccc(NC(=O)Nc4cc(C)on4)c(Cl)c3)c2cc1OC [Tivozanib] + CS(=O)(=O)N1CCN(Cc2cc3nc(-c4cccc5[nH]ncc45)nc(N4CCOCC4)c3s2)CC1 [Pictilisib] (partner 1 µM) , give its reported relative viability.
0.769

###

# Tested on: SW 900
# Protocol Text: relative viability (nuclei count vs DMSO), 5 days (fraction); higher = more cells survive
# Particulars: first compound 0.01581 µM
Result Type: relative viability
# print the numeric value only

| Molecule | Recorded Measurement |
| --- | --- |
| COc1cc2nccc(Oc3ccc(NC(=O)Nc4cc(C)on4)c(Cl)c3)c2cc1OC [Tivozanib] + Cc1nc(Nc2ncc(C(=O)Nc3c(C)cccc3Cl)s2)cc(N2CCN(CCO)CC2)n1 [Dasatinib] (partner 0.075 µM) | 0.53 |
| Nc1ccn([C@@H]2O[C@H](CO)[C@@H](O)[C@@H]2O)c(=O)n1 [Cytarabine] + COc1cccc2cc(-c3nc([C@H]4CC[C@H](C(=O)O)CC4)n4ncnc(N)c34)[nH]c12 [OSI-027] (partner 0.5 µM) | 0.34 |
| Nc1ccn([C@@H]2O[C@H](CO)[C@@H](O)[C@@H]2O)c(=O)n1 [Cytarabine] + O=C(c1cc(Cc2n[nH]c(=O)c3ccccc23)ccc1F)N1CCN(C(=O)C2CC2)CC1 [Olaparib] (partner 8 µM) | 0.797 |

Let us examine a further case.
For the molecule COc1cc2nccc(Oc3ccc(NC(=O)Nc4cc(C)on4)c(Cl)c3)c2cc1OC [Tivozanib] + O=C(c1cc(Cc2n[nH]c(=O)c3ccccc23)ccc1F)N1CCN(C(=O)C2CC2)CC1 [Olaparib] (partner 8 µM) , give its reported relative viability.
0.817

###

Entries annotated with measured relative viability
# Tested on: NCI-H460
# Protocol Text: relative viability (nuclei count vs DMSO), 5 days (fraction); higher = more cells survive
# Particulars: first compound 8 µM
# print the numeric value only

Please review the entries below; each comes with its answer.
| Molecule | relative viability |
| --- | --- |
| O=c1[nH]c2ccccc2n1C1CCN(CCCC(c2ccc(F)cc2)c2ccc(F)cc2)CC1 [Pimozide] + COc1cc2c(Oc3ccc(NC(=O)C4(C(=O)Nc5ccc(F)cc5)CC4)cc3F)ccnc2cc1OCCCN1CCOCC1 [Foretinib] (partner 0.25 µM) | 0.867 |
| O=c1[nH]c2ccccc2n1C1CCN(CCCC(c2ccc(F)cc2)c2ccc(F)cc2)CC1 [Pimozide] + CCNC(=O)c1noc(-c2cc(C(C)C)c(O)cc2O)c1-c1ccc(CN2CCOCC2)cc1 [Luminespib] (partner 0.01 µM) | 0.0256 |

Let us examine a further case.
For the molecule O=c1[nH]c2ccccc2n1C1CCN(CCCC(c2ccc(F)cc2)c2ccc(F)cc2)CC1 [Pimozide] + NC(=O)Nc1cc(-c2cccc(F)c2)sc1C(=O)N[C@H]1CCCNC1 [AZD7762] (partner 0.2 µM) , give its reported relative viability.
0.549

###

# Tested on: LCLC-103H
# Protocol Text: relative viability (nuclei count vs DMSO), 5 days (fraction); higher = more cells survive
# Particulars: first compound 50 µM
Entries annotated with measured relative viability
# print the numeric value only

Please review the entries below; each comes with its answer.
| Compound | relative viability |
| --- | --- |
| O=C(O)CCCCC(CCSCc1ccccc1)SCc1ccccc1 (stereo not drawn) [CPI-613] + Nc1ncn([C@H]2C[C@H](O)[C@@H](CO)O2)c(=O)n1 [Decitabine] (partner 2 µM) | 0.714 |
| O=C(O)CCCCC(CCSCc1ccccc1)SCc1ccccc1 (stereo not drawn) [CPI-613] + C[C@@H](Oc1cc(-c2cnn(C3CCNCC3)c2)cnc1N)c1c(Cl)ccc(F)c1Cl [Crizotinib] (partner 1 µM) | 0.917 |

Let us examine a further case.
Give measured relative viability for O=C(O)CCCCC(CCSCc1ccccc1)SCc1ccccc1 (stereo not drawn) [CPI-613] + CC(=O)c1c(C)c2cnc(Nc3ccc(N4CCNCC4)cn3)nc2n(C2CCCC2)c1=O [Palbociclib] (partner 0.5 µM) (LCLC-103H).
0.455

###

# System: NCI-H1915
# Protocol Text: relative viability (nuclei count vs DMSO), 5 days (fraction); higher = more cells survive
# Particulars: first compound 0.005 µM
Dear colleague, classification is by relative viability, with ranges listed here: bin 0 (below 0.4), bin 1 (0.4 to below 1), bin 2 (1 or more)

Some solved cases for reference:
| Compound | Class |
| --- | --- |
| Nc1ccn([C@@H]2O[C@H](CO)[C@@H](O)[C@@H]2O)c(=O)n1 [Cytarabine] + O=C(c1cc(Cc2n[nH]c(=O)c3ccccc23)ccc1F)N1CCN(C(=O)C2CC2)CC1 [Olaparib] (partner 8 µM) | bin 0 |
| Nc1ccn([C@@H]2O[C@H](CO)[C@@H](O)[C@@H]2O)c(=O)n1 [Cytarabine] + CC(=O)Nc1cccc(-n2c(=O)n(C3CC3)c(=O)c3c(Nc4ccc(I)cc4F)n(C)c(=O)c(C)c32)c1 [Trametinib] (partner 0.02 µM) | bin 1 |
| Nc1ccn([C@@H]2O[C@H](CO)[C@@H](O)[C@@H]2O)c(=O)n1 [Cytarabine] + N=C(N)NC(=N)NCCc1ccccc1 [Phenformin] (partner 250 µM) | bin 0 |
| Nc1ccn([C@@H]2O[C@H](CO)[C@@H](O)[C@@H]2O)c(=O)n1 [Cytarabine] + Cc1nc(NC(=O)N2CCC[C@H]2C(N)=O)sc1-c1ccnc(C(C)(C)C(F)(F)F)c1 [Alpelisib] (partner 2 µM) | bin 2 |
| COc1cc2nccc(Oc3ccc(NC(=O)Nc4cc(C)on4)c(Cl)c3)c2cc1OC [Tivozanib] + C[C@]1(O)C[C@@H](c2nc(-c3ccc4ccc(-c5ccccc5)nc4c3)c3c(N)nccn32)C1 [Linsitinib] (partner 1 µM) | bin 2 |
| Nc1ccn([C@@H]2O[C@H](CO)[C@@H](O)[C@@H]2O)c(=O)n1 [Cytarabine] + C[C@]1(O)C[C@@H](c2nc(-c3ccc4ccc(-c5ccccc5)nc4c3)c3c(N)nccn32)C1 [Linsitinib] (partner 1 µM) | bin 2 |
| COc1cc2nccc(Oc3ccc(NC(=O)Nc4cc(C)on4)c(Cl)c3)c2cc1OC [Tivozanib] + COc1cccc2cc(-c3nc([C@H]4CC[C@H](C(=O)O)CC4)n4ncnc(N)c34)[nH]c12 [OSI-027] (partner 0.5 µM) | bin 1 |
| COc1cc2nccc(Oc3ccc(NC(=O)Nc4cc(C)on4)c(Cl)c3)c2cc1OC [Tivozanib] + Nc1nc2[nH]cc(CCc3ccc(C(=O)N[C@@H](CCC(=O)O)C(=O)O)cc3)c2c(=O)[nH]1 [Pemetrexed] (partner 0.2 µM) | bin 1 |

Query compound follows.
Just checking, what class would you give COc1cc2nccc(Oc3ccc(NC(=O)Nc4cc(C)on4)c(Cl)c3)c2cc1OC [Tivozanib] + N=C(N)NC(=N)NCCc1ccccc1 [Phenformin] (partner 250 µM) here?
bin 0
